# System: human RNase H2
# method.description: Antisense inhibition of human RNase H2 expression, Northern blot
# Type: cell-based
# Parameters: concentration or dose not given beside the values
# assay.setup: RNase H2 expression, Northern blot
Strand notation (5' to 3'): a small letter for the sugar, then the base; units joined by * are phosphorothioate-linked, units joined directly phosphodiester-linked; [ ] holds rarer units or linkages, { } end groups; capitals alone tell only the bases. e = 2'-O-(2-methoxyethyl) (MOE); [5mC] = 5-methylcytosine; d = 2'-deoxy (DNA)
// NB: equality with 50% counts as NO; only % of control strictly below is YES

Strictly below 50%: is that where % of control of CGCGCCTGGTATGTCTCTGG (all C 5-methyl, all phosphorothioate, sugars by position not given here; further chemistry not fully specified) [ISIS 21952, 2′-O-methoxyethyl gapmer, 8-nucleotide deoxy gap, phosphorothioate backbone, targeted to human RNase H2] sits?
YES

***
Does GCACACTCCCACCTTGCTTC (chemistry not fully specified) [ISIS 21961, 2′-O-methoxyethyl gapmer, 8-nucleotide deoxy gap, phosphorothioate backbone, targeted to human RNase H2] have % of control strictly under 50%?
NO

Does the reported % of control of CCTACGTGTGGTTCTCCTTA (antisense e[5mC]*e[5mC]*eT*eA*e[5mC]*eG*dT*dG*dT*dG*dG*dT*dT*d[5mC]*eT*e[5mC]*e[5mC]*eT*eT*eA) [ISIS 21960, 2′-O-methoxyethyl gapmer, 8-nucleotide deoxy gap, phosphorothioate backbone, targeted to human RNase H2] stay below 50%?
YES

State whether 50% exceeds % of control recorded for GGACAATAACAGATGGCGTA (eG*eG*eA*e[5mC]*eA*eA*dT*dA*dA*d[5mC]*dA*dG*dA*dT*eG*eG*e[5mC]*eG*eT*eA) [ISIS 21948] .
YES

* * *

# tested.on: Human RNase H1 (wild type) (Homo sapiens) (UniProt O60930)
# Sequence: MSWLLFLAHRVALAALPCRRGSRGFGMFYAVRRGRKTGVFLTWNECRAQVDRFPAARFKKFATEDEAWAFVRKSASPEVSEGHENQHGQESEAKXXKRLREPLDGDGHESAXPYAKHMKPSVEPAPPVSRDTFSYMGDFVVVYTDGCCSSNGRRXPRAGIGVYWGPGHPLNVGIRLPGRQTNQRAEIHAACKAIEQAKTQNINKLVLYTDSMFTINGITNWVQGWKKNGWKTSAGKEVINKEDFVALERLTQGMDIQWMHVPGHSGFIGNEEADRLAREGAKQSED
# method.description: competition
# assay.setup: 2'-F on the strand complementary to the DNA; inhibition of RNA/DNA cleavage, Lineweaver-Burk, 1 mM MgCl2, 37 C; table row misprinted as [ΔI-II], text gives wild type; sequence of the 17-mer inferred
readout.name: Kd
# output: number + unit

Let me know recorded Kd for CCACACCGACGGCGCCC / GGGCGCCGUCGGUGUGG [non-cleavable DNA/2'-fluoro heteroduplex] , thanks.
75 nM

* * *

# Tested on: human RNase H2
# method.description: Screen of antisense compounds (gapped oligonucleotides, siRNA) in cells against human RNase H2
# Format: cell-based
# Parameters: concentration or dose not given beside the values
# assay.setup: percent inhibition of RNase H enzyme levels; target H2
Strand notation (5' to 3'): a small letter for the sugar, then the base; units joined by * are phosphorothioate-linked, units joined directly phosphodiester-linked; [ ] holds rarer units or linkages, { } end groups; capitals alone tell only the bases. e = 2'-O-(2-methoxyethyl) (MOE); [5mC] = 5-methylcytosine; d = 2'-deoxy (DNA)
readout.name: % Inhib
Answers without a unit are incomplete; give the number and then its unit.

Tell me its % Inhib given AGCTGAACCGGACAAACTGG (antisense eA*eG*e[5mC]*eT*eG*eA*dA*d[5mC]*d[5mC]*dG*dG*dA*d[5mC]*dA*eA*eA*e[5mC]*eT*eG*eG) [ISIS 21957, 2′-O-methoxyethyl gapmer, 8-nucleotide deoxy gap, phosphorothioate backbone, targeted to human RNase H2] as the entry.
68.1%

Fill in % Inhib for each of the 2 sequences listed.
1. ACTCCAGGCCGCGTTCCAGG (antisense eA*e[5mC]*eT*e[5mC]*e[5mC]*eA*dG*dG*d[5mC]*d[5mC]*dG*d[5mC]*dG*dT*eT*e[5mC]*e[5mC]*eA*eG*eG) [ISIS 21959, 2′-O-methoxyethyl gapmer, 8-nucleotide deoxy gap, phosphorothioate backbone, targeted to human RNase H2]
2. UAAGGAGAACCACACGUAGGG [Si 21960]

["81.2%", "9.9%"]
